- measuredTarget: T1, canine OX40L, full length membrane form, expressed on HEK293 cells (canine)
- T1 chain: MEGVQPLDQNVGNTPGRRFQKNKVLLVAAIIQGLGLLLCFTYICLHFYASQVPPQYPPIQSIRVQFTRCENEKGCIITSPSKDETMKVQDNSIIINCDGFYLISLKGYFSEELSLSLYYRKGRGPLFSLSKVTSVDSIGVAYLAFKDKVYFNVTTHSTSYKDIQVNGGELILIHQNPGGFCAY
- assayRemarks: cell-based or functional assay
Exercise: for every item that follows, state its recorded % Signal Inhibition Rep1.
Numbers only, in %.

Please state, for each entry, its recorded % Signal Inhibition Rep1.
1. PMX034 (antibody, V domains shown, also called PMX34) VH: EVQLVESGGDLVKPGGSLRLSCVASGFTFSNYHMSWVRQAPGKGLQWVAYIVSGGSSTTYADAVKGRFTISRDNAKNTLYLQMTSLRAEDTAVYYCASDLVLLVGGADYWGQGTLVTVSS VL: SYELTQPPSVNVTLRETAHITCGGDSIGSKYVQWIQQNPGQAPVVIIYKDSNRPTGIPERFSGANSGNTATLTISGALAEDEADYYCQVGDSGTKAVFGGGTHLTVL
2. PMX094 (antibody, V domains shown) VH: DIHLVESGGDLVRPGGSLRLSCVASGFTFSNLHMNWVRQAPGKGLQWVAFINSGGSGTTYADVVRGRFTISRDYAKNTLYLQMNSLRADDTAVYYCASGSIWTHFDYWGQGTLVTVSS VL: SFVLTQLPSVSVTLRQTARITCGGDSIGSKSVYWYQQKLGQAPVLIIYRDSNRPTGIPERISGASSGNTATLTISGALAEDEADYYCQVWDSSNKAMFGGGTHLTVL
3. PMX085 (antibody, V domains shown, also called PMX85) VH: EVKLVESGGDLVKPEGSLRLSCVVSGFTFSRYGMSWVRQAPGKGLQWVAYISSDGRSSSYTDAVQGRFTISSDNAKNTLYLQMNSLTTEDTAVYYCAKLGRGFNFNFWGQGTLVTVSS VL: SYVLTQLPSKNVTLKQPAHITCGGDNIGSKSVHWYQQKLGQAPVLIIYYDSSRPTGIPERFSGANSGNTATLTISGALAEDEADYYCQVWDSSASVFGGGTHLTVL

RESULT:
[76.4, 38.6, 43.8]
